Answer each item with its documented pKd.
- Target entity: T1, human sclerostin (human)
- T1 chain: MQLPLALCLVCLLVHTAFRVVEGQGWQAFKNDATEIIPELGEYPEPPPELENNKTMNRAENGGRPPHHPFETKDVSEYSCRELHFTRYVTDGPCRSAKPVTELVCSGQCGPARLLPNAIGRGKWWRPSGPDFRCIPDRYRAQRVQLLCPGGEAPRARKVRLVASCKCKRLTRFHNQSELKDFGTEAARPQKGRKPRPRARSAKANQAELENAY
- Assay: SPR, pH 7.4, 37C
Please note pKd is a logarithmic value: minus log10 of concentration in mol/L. Answer with that number alone.

Prompt line: Supply recorded pKd for mabA_NpH1 (antibody, V domains shown) VH: EVQLVQSGAEVKKPGASVKVSCKASGYTFTDYNMHWVRQAPGQGLEWMGEINPNSGGAGYNQKFKGRVTMTTDTSTSTAYMELRSLRSDDTAVYYCARLGYDDIYDDWYFHVWGQGTTVTVSS VL: DIQMTQSPSSLSASVGDRVTITCRASQDISNYLNWYQQKPGKAPKLLIYHTSRLLSGVPSRFSGSGSGTDFTLTISSLQPEDFATYYCQQGDTLPYTFGGGTKVEIK here.
Response line: 9.71

Prompt line: Supply recorded pKd for mabA (antibody, V domains shown) VH: EVQLVQSGAEVKKPGASVKVSCKASGYTFTDYNMHWVRQAPGQGLEWMGEINPNSGGAGYNQKFKGRVTMTTDTSTSTAYMELRSLRSDDTAVYYCARLGYDDIYDDWYFDVWGQGTTVTVSS VL: DIQMTQSPSSLSASVGDRVTITCRASQDISNYLNWYQQKPGKAPKLLIYYTSRLLSGVPSRFSGSGSGTDFTLTISSLQPEDFATYYCQQGDTLPYTFGGGTKVEIK here.
Response line: 10.10

Prompt line: Supply recorded pKd for mabA_NpH2 (antibody, V domains shown) VH: EVQLVQSGAEVKKPGASVKVSCKASGYTFTDYNMHWVRQAPGQGLEWMGEINPNSGGAGYNQKFKGRVTMTTDTSTSTAYMELRSLRSDDTAVYYCARLGYDDIYDDWYFDVWGQGTTVTVSS VL: DIQMTQSPSSLSASVGDRVTITCRASQDISNYLNWYQQKPGKAPKLLIYHTSRLLSGVPSRFSGSGSGTDFTLTISSLQPEDFATYYCQQGDTLPYTFGGGTKVEIK here.
Response line: 9.49

Prompt line: Supply recorded pKd for mabA_pH2 (antibody, V domains shown) VH: EVQLVQSGAEVKKPGASVKVSCKASGYTFTDYNMHWVRQAPGQGLEWMGEINPNSGHAGYNQKFKGRVTMTTDTSTSTAYMELRSLRSDDTAVYYCARLHYDHIYDDWYFDVWGQGTTVTVSS VL: DIQMTQSPSSLSASVGDRVTITCRASHDISNYLNWYQQKPGKAPKLLIYYTSRLLSGVPSRFSGSGSGTDFTLTISSLQPEDFATYYCQQGDTLPYTFGGGTKVEIK here.
Response line: 9.59

Prompt line: Supply recorded pKd for mabA_pH1 (antibody, V domains shown) VH: EVQLVQSGAEVKKPGASVKVSCKASGYTFTDYNMHWVRQAPGQGLEWMGEINPNSGHAGYNQKFKGRVTMTTDTSTSTAYMELRSLRSDDTAVYYCARLHYDDIYDDWYFDVWGQGTTVTVSS VL: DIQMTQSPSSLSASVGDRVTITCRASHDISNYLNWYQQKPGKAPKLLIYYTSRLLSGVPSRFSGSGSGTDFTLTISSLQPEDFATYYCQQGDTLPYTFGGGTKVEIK here.
Response line: 9.67
